System: TK-10 renal
Experiment: NCI-60 one-dose screen, 48 h (100 = growth as untreated, 0 = no growth, -100 = all killed)
Condition Parameters: 10 µM unless noted
This is part of a sample that, as a whole, favours compounds with a hit. Of some 83,000 tested, about 20% had one in any assay.
Experimental Endpoint: growth (%)
Report the value in % with no unit label.

// known answers, use as guide
COc1cc2oc(-c3cccc(NC(=O)c4ccccc4)c3)cc(=O)c2c(OC)c1OC
91.3
O=C1Nc2ccc(C(=O)O)cc2/C1=N/c1nnc(Sc2ccccc2)s1
106
CCN(CC)CC(O)COc1c(Br)c(Br)c(Br)c2c1OC(C)(C)C2 (stereo unspecified)
58.4
COc1ccc(/C=C(\C#N)n2nnc3ccc(Cl)cc32)cc1
77.6
Cn1c(=O)cc2c3c(c(NCCCO)ccc31)C(=O)c1ccccc1-2
29.1

Now examine the next entry.
Enquiry: Give the reported value of growth for this record: "N#Cc1c(-c2ccc(Cl)cc2)nc(NN2C(=O)c3ccccc3C2=O)nc1N1CCOCC1"
Return: 100

----------
Tested on: U251 CNS
Experiment: NCI-60 one-dose screen, 48 h
Condition Parameters: 10 µM unless noted
This is part of a sample that, as a whole, favours compounds with a hit. Of some 83,000 tested, about 20% had one in any assay. The source made the active and inactive calls. How the source made its calls: active means growth percent below 10; inactive means the rest.
# output must be one of y (active), n (inactive)

C#CCOc1cccc(Nc2ncnc3cc(NC(=O)C=C)ccc23)c1
n
Cn1c(I)c(C#CCO[Si](C)(C)C(C)(C)C)c(=O)[nH]c1=O
n
COc1ccc(-c2cc(-c3cc(OC)c(OC)c(OC)c3)c(C#N)c(=O)n2CCCCC(=O)NO)cc1
n

Enquiry: Hi, sorry to bother you, what did the test record for O=C(NCc1ccc(Cl)cc1Cl)C1CCC(=O)N1c1cccs1 (stereo unspecified) ?
Return: n

Enquiry: Hi, sorry to bother you, what did the test record for "CC/C=C\C[C@H](O)C/C=C1/C(=O)C=C[C@@H]1C/C=C\CCCC(=O)N(C)C" ?
Return: y

Enquiry: Hi, sorry to bother you, what did the test record for "CCn1cc(C(=O)NNC(=S)Nc2ccc(C)cc2)c(=O)c2ccc(C)nc21" ?
Return: n

Enquiry: Hi, sorry to bother you, what did the test record for "CCOC(=O)c1c(NC(=O)c2ccc(Cl)cc2)sc2c(CN(C)C)c(O)ccc12" ?
Return: n

----------
System: IGROV1 ovarian
Experiment: NCI-60 one-dose screen, 48 h
Condition Parameters: 10 µM unless noted
This is part of a sample that, as a whole, favours compounds with a hit. Of some 83,000 tested, about 20% had one in any assay. The source made the active and inactive calls. The calls were made as follows: active = growth percent below 10; inactive = the rest.
# output must be one of 1.0 = active, 0.0 = inactive

COc1ccc(C(=O)C/C(=C\c2ccc(Cl)cc2)C(=O)NCc2ccccc2)cc1
0.0
CC(=O)Oc1ccc(/C(=C(\C)c2ccc(Cl)cc2)c2ccc(OCCN3CCCCC3)cc2)cc1
0.0
Oc1c(I)cc(I)cc1CNCCN(Cc1ccccn1)Cc1ccccn1
1.0

Next molecule, please.
Enquiry: Hi, sorry to bother you, what did the test record for Cc1ccc(C2=Nc3c(N)ncnc3NC(c3cccc(Nc4ccnc5cc(C(F)(F)F)ccc45)c3)C2)cc1 (centres undefined) ?
Return: 0.0

----------
Tested on: MCF7 breast
Experiment: NCI-60 one-dose screen, 48 h
Condition Parameters: 10 µM unless noted
Compounds without any hit were thinned out: in the full panel of roughly 83,000, 20% have a hit. The source made the active and inactive calls. Rule for the calls: active = growth percent below 10; inactive = the rest.
# output must be one of YES = active, NO = inactive

Solved entries (count: 3):
N#Cc1ccc2c(c1)C(=O)c1c-2n(CCCN)c(=O)c2cc([N+](=O)[O-])ccc12
YES
O=C(c1ccncc1)N1N=C(c2ccc(Cl)cc2)C[C@H]1c1cn(-c2ccccc2)nc1-c1ccccc1
NO
Nc1nc(-c2ccc(Cl)cc2)nc2c1sc(=S)n2-c1ccccc1
NO

Next compound, please.
Enquiry: Hi, sorry to bother you, what did the test record for "COc1cc(-c2nccc3[nH]c(-c4ccc5cc[nH]c5c4)nc23)cc(OC)c1OC" ?
Return: YES
